These data points were gathered from PubChem BioAssay (NCI).

- Tested on: U251 CNS
- assay_name: NCI tumour cell line growth inhibition, 48 h
measurement_label: TGI

The cases that follow already have their TGI on record.
INSERT INTO assay_data (entry_smiles, measurement_label, observed_result) VALUES
  ('O=C(Nc1ccccc1C(=O)N/N=C(\c1ccccc1)c1ccccn1)c1ccccc1', 'TGI', '> 100 µM'),
  ('NS(=O)(=O)c1ccc(N=Nc2c(O)[nH]c3ccc(Cl)cc23)cc1', 'TGI', '> 25 µM'),
  ('CCCCCC[n+]1noc(N)c1-c1ccc(-c2c(N)on[n+]2CCCCCC)cc1', 'TGI', '3.47 µg/mL'),
  ('CCN(CC)CCn1ncc2c(N)ncnc21', 'TGI', '> 100 µM'),
  ('N#CNC(=NCc1ccccc1)NCc1ccccc1', 'TGI', '> 70.7 µM');

API: value(readout= TGI, system= U251 CNS, query= Cn1cc(C2=C(n3ccc4ccccc43)C(=O)NC2=O)c2ccccc21 )
> 25 µM

----------
- System: NCI-H522 lung
- assay_name: NCI tumour cell line growth inhibition, 48 h
Consider the following compounds; for each one, report its GI50.

Some compounds with recorded GI50:
INSERT INTO results (compound, observed_result) VALUES
  ('CC[O-].CC[O-].CN(C)c1ccc([O-])cc1.CN(C)c1ccc([O-])cc1.[Ti+4]', '52.3 µM'),
  ('CCCCCN1C(=O)/C(=c2\sc3n(c2=O)C2C(NN=3)N(CC)C(=O)N2CC)c2ccccc21 (stereo not drawn)', '0.754 µM');

Please turn your attention to the following entry.
# get_value(readout='GI50', item= COc1cc2c3c(n(CCCN)c(=O)c2cc1OC)-c1ccc(N(C)C)cc1C3=O )
17.3 µM

----------
- System: HS 578T breast
- assay_name: NCI tumour cell line growth inhibition, 48 h
measurement_label: TGI

Before answering, review these 2 worked examples.
INSERT INTO measurements (compound, observed_result) VALUES
  ('CCOP(=O)(OCC)C(C)(C)OC(=O)NC(F)(F)F', '> 100 µM'),
  ('CC(C)C(=O)NCC[C@@H](CNC(=O)OC(C)(C)C)NC(=O)OC(C)(C)C', '> 100 µM');

With those in mind, consider the next compound.
Item COc1ccc2c(c1)C(=O)C1(C2)[C@H](c2ccccc2)C2C(=O)c3cc(OC)ccc3C2[C@H]1c1ccccc1 (stereo partly drawn) has what recorded TGI?
> 100 µM

----------
- Test system: HCC-2998 colon
- assay_name: NCI tumour cell line growth inhibition, 48 h
measurement_label: TGI

INSERT INTO assay_data (entry_smiles, measurement_label, observed_result) VALUES
  ('O=C1c2ccccc2S(=O)(=O)N1CSC(=S)N1CCOCC1', 'TGI', '> 100 µM'),
  ('CN(C)CCNc1ccc2nnn3c4ccc(O)cc4c(=O)c1c23', 'TGI', '19.6 µM'),
  ('CC(C)(C(=O)NCC(F)(F)C(F)(F)F)C(=O)N[C@@H]1C(=O)Nc2ccccc2-c2ccccc21', 'TGI', '> 100 µM'),
  ('[N-]=[N+]=Nc1ncnc2c1sc(=S)n2-c1ccccc1', 'TGI', '> 100 µM'),
  ('CCOC(=O)c1ccc(O)cc1', 'TGI', '> 100 µM'),
  ('N#Cc1c(=N)cc2c3ccccc3oc3c(C#N)c(N)[nH]c1c32', 'TGI', '> 100 µM');

For each of the items listed, what is its TGI?
1. COc1ccc(/C=C2\C(=O)NC(=O)c3ccccc32)cc1OC
2. CN/N=C(/C=C/c1ccccc1)C(C)C
3. NC(N)=N/N=C(\c1ccc(F)cc1)c1ccc(C(F)(F)F)cc1

1. > 100 µM
2. > 100 µM
3. 1.75 µM

----------
- Tested on: RXF 393 renal
- assay_name: NCI tumour cell line growth inhibition, 48 h
measurement_label: TGI

INSERT INTO assay_data (compound, measurement_label, observed_result) VALUES
  ('COc1ccccc1CNCCCCCNCCCCCCCCCCNCCCCCNCc1ccccc1OC', 'TGI', '96.3 µM'),
  ('COc1cc(C(=O)O[C@H]2CCC3CCC2N3C)cc(OC)c1OC (stereo partly drawn)', 'TGI', '> 100 µM'),
  ('O=C(Nc1cc(Cl)c(Cl)cc1Cl)C(=O)C(C(=O)c1ccccc1)C1OC(=O)c2ccccc21 (stereo not drawn)', 'TGI', '> 100 µM');

Could I get TGI for every one of these entries?
1. CCSC1=CC(Cc2ccc(OC)cc2)N(C(=O)OC)C1 (stereo not drawn)
2. CC(C)(C(=O)NCC(F)(F)C(F)(F)F)C(=O)N[C@@H]1C(=O)Nc2ccccc2-c2ccccc21
3. CCNCCNc1cc(-c2ccc(Cl)c(Cl)c2)c(C#N)c2nc3ccccc3n12
4. COc1ccc2c(c1)C(=O)C1(C2)[C@H](c2ccccc2)C2C(=O)c3cc(OC)ccc3C2[C@H]1c1ccccc1 (stereo partly drawn)
5. COc1ccc(N)c(C(=O)CCNC(C)=O)c1

1. > 100 µM
2. > 78.7 µM
3. 2.94 µM
4. > 100 µM
5. > 100 µM

----------
- System: SF-295 CNS
- assay_name: NCI tumour cell line growth inhibition, 48 h
measurement_label: TGI

INSERT INTO assay_data (molecule, observed_result) VALUES
  ('CCCCCCCCCCCCCCCC(=O)Nc1ccn(C2CC(OP(=O)(O)OCC3OC(n4cc(F)c(=O)[nH]c4=O)CC3OC(C)=O)C(CO)O2)c(=O)n1 (stereo not drawn)', '> 45.2 µM');

Each of the following entries comes with a recorded value; kindly state TGI for each.
1. O=C1c2ccccc2CC12CCC1(CC2)OCCO1
2. COc1cc(C(=O)O[C@H]2CCC3CCC2N3C)cc(OC)c1OC (stereo partly drawn)

["> 100 µM", "> 100 µM"]

----------
- System: NCI-H460 lung
- assay_name: NCI tumour cell line growth inhibition, 48 h
Could you please report measured TGI for the items listed next?

INSERT INTO measurements (compound, observed_result) VALUES
  ('CC1C2CC(CC23OCC(CCl)O3)C1(C)C (stereo not drawn)', '> 100 µM');

Here are 2 compounds. What values of TGI were reported for them?
1. COC(=O)[C@]1(C)CCC[C@]2(C)C3CC4OOC3(C=C4C(C)(C)O)CCC21 (stereo partly drawn)
2. CC(C)NCCCNc1c2ccccc2nc2cccc([N+](=O)[O-])c12

> 100 µM
0.103 µM

----------
Exercise: state measured TGI for each of the molecules provided.
- Test system: HCT-15 colon
- assay_name: NCI tumour cell line growth inhibition, 48 h

Study these solved cases before continuing.
INSERT INTO assay_data (molecule, measurement_target, measurement_label, observed_result) VALUES
  ('Cc1cc(S(=O)(=O)N/C(=C(\C#N)C(=O)c2ccccc2)[n+]2ccc(N(C)C)cc2)c([S-])cc1Cl', 'HCT-15 colon', 'TGI', '> 100 µM'),
  ('COc1ccc2c(c1)C(=O)C1(C2)[C@H](c2ccccc2)C2C(=O)c3cc(OC)ccc3C2[C@H]1c1ccccc1 (stereo not given in full)', 'HCT-15 colon', 'TGI', '> 100 µM');

Respectfully, I request TGI for each entry included below.
1. [N-]=[N+]=Nc1cccc(-c2n[nH]c(Cl)cc2=O)c1
2. COc1cc(C2c3cc4c(cc3[C@@H](Nc3ccc(F)cc3)C3CO[C@@H](O)[C@H]23)OCO4)cc(OC)c1O (stereo not given in full)
3. O=C(Cc1cc(=O)oc2cc(O)ccc12)N/N=C/c1ccc(N(CCCl)CCCl)cc1

1: > 100 µM; 2: > 25 µM; 3: > 100 µM

----------
- Test system: COLO 205 colon
- assay_name: NCI tumour cell line growth inhibition, 48 h
measurement_label: TGI (µM)
Numbers only, in µM.

Parameter requested: TGI. Apply to each item below.
1. COc1ccc(NC(=S)N/N=C(\c2ccccc2)c2ccccn2)cc1
2. Cc1ccc2c(/C=C/c3ccc(N(C)C)cc3)ccnc2c1C

30.3
55.6

Your task in this section: give TGI for each listed record.
1. CCC1c2[nH]c3ccccc3c2C[C@H]2C(=O)NC(Cc3c[nH]c4ccccc34)C(=O)N12 (stereo not given in full)
2. CCN(CC)c1c(C(=O)/C=C/c2ccc(F)cc2)c(-c2ccccc2)nn(C)c1=O
3. CCOc1ccccc1C(=O)/C=C/c1cc2ccccc2[nH]c1=O
4. COc1ccc2nc3c(n2c1)C(=O)C(=O)c1ccccc1-3
5. C#CCNCCCN1C(=O)c2ccc3c4c(ccc(c24)C1=O)C(=O)N(CCCNCC#C)C3=O

36.2
14.8
0.643
8.14
0.238

----------
- Test system: COLO 205 colon
- assay_name: NCI tumour cell line growth inhibition, 48 h
measurement_label: TGI

Here are 5 compounds together with their reported answers.
INSERT INTO assay_data (compound, observed_result) VALUES
  ('CCSC1=CC(Cc2ccc(OC)cc2)N(C(=O)OC)C1 (stereo not drawn)', '> 100 µM'),
  ('CN/N=C(/C=C/c1ccccc1)C(C)C', '> 100 µM'),
  ('CCOC(=O)C(C(=O)OCC)P(=S)(S)c1ccccc1 (stereo not drawn)', '> 100 µM'),
  ('OCCNCN(CNCCO)c1nc(N(CNCCO)CNCCO)nc(N(CNCCO)CNCCO)n1', '0.0877 µM'),
  ('CCOC(=O)CC1C(O)C(=O)N(C)C1c1ccccc1 (stereo not drawn)', '> 100 µM');

Dear reader, for each entry below, please note its TGI.
1. COc1ccc(CCc2nc3cc(-c4c(C)noc4C)ccc3n2CCN2CCOCC2)cc1
2. c1ccc(N=C(N2CCCCC2)N(CCN2CCCCC2)c2ccccc2)cc1
3. CCNC(=O)N1CCc2c(Cl)c3c(c(OC)c2[C@@H]1[C@H]1OCc2c1ccc(OC)c2OC)OCCO3

> 100 µM
11.2 µM
10.9 µM
